Tested on: K-562 leukemia
Assay: NCI-60 one-dose screen, 48 h (100 = growth as untreated, 0 = no growth, -100 = all killed)
Details: 10 µM unless noted
This is part of a sample that, as a whole, favours compounds with a hit. Of some 83,000 tested, about 20% had one in any assay.
Reported Metric: growth (%)
Give the quantity in %, number only.

Consider the following illustrative entries.
CCOP(=O)(Nc1ccc2c(c1)/C(=N/NC(N)=S)c1ccccc1-2)OCC : 103
COC(=O)[C@@H](C)C[C@H](Cc1ccccc1)NC(=O)c1csc([C@@H](C[C@H](C(C)C)N(C)C(=O)C2(NC(=O)[C@H]3CCCCN3C)CC2)OC(C)=O)n1 : 3.8
C=CC[PH+](c1ccccc1)c1ccccc1.C=CC[PH+](c1ccccc1)c1ccccc1.[Cl][Pt][Cl] : 0.456

Query: What value of measured growth is listed for Cc1cc(N(CCCl)CCCl)ccc1C=Nc1ccccc1-c1ccccc1 ?
Response: 85

Query: Consider the compound O=C(CC1(O)C(=O)N(Cc2ccccc2)c2ccc(Br)cc21)c1ccc(C(=O)NCC2CCC3(CC2)OOC2(CCCCC2)OO3)cc1 (configuration not stated) and give its measured growth.
Response: -5.58

Query: GET /values?readout=growth&item= COC(=O)C12CC(NC(=O)c3csc([C@@H](C[C@H](C(C)C)N(C)C(=O)[C@@H](NC(=O)[C@H]4CCCCN4C)C(C)C)OC(C)=O)n3)(C1)C2
Response: 12

Query: Name the recorded growth for COc1ccc2c(c1)c(-c1nc(-c3cn(C)c4ncccc34)cs1)cn2CCCCN1CCCCC1 .
Response: -66.8

Query: Field request: growth | item: CCn1cnc2c(Nc3cccc(Cl)c3)nc(N[C@@H]3CCCC[C@@H]3N)nc21
Response: -2.92

Query: Any idea what its growth is? The compound is COc1ccc(N(CC(=O)NCCC[Te]c2ccccc2)C(=O)CNC(=O)OC(C)(C)C)cc1
Response: 97

Query: Please look up its growth: COC(=O)[C@]12CCC(C)(C)C[C@H]1[C@H]1C(=O)C[C@@H]3[C@@]4(C)C[C@@]5(CC(C)(C)[C@@H]4CC[C@@]3(C)[C@]1(C)CC2)OO[C@@](C)(C(F)(F)F)O5
Response: 88.3

Query: # input compound: O=C1C2CCC1C(N1CCCC1)CC2 (configuration not stated) ; wanted: its growth
Response: 98.8
